quantity-measured: melting point

- compound: "COC(=O)CCc1cc2cc(F)c(Cl)cc2[nH]1"
  melting point: "138 to 139 °C"
- compound: "CCCCOc1ccc(NC(=O)c2cnc(C(=O)OC)c(OC)c2)cc1"
  melting point: "138 to 141 °C"
- compound: "CCCCSc1cc(C(=O)OC)cc(S(N)(=O)=O)c1Cc1ccccc1"
  melting point: "118 to 120 °C"

QUERY: Looking for the measured melting point of CC1(C)CN2C(=O)c3nc[nH]c3N(Cc3ccc(Cl)cc3)C2=N1 , can you help?
RESULT: 222 to 223 °C

QUERY: # lookup: melting point of C=C(C)Cn1c(N)cc(=O)[nH]c1=O
RESULT: 267 to 269 °C

QUERY: Consider the compound COc1ccc(Cl)cc1CN(CCO)c1ncnc2c1ncn2C1OC(CO)C(O)C1O (stereo not given) and give its measured melting point.
RESULT: 98 to 100 °C
